Source: ChEMBL document CHEMBL1143584

biological target: Human immunodeficiency virus type 1 reverse transcriptase (Human immunodeficiency virus 1, UniProt Q72547)
log10 of Ki listing for selected compounds.
outcome measure: log10 of Ki (log10 of the value in nM)

[[record]]
compound = "Nc1nc(O)c2ncn([C@H]3C=CC(COP(=O)(O)OP(=O)(O)OP(=O)(O)O)C3)c2n1 (some centres not stated)"
outcome_measure = "log10 of Ki"
experimental_result = 1.57

[[record]]
compound = "Nc1ccn([C@@H]2CS[C@H](COP(=O)(O)OP(=O)(O)OP(=O)(O)O)O2)c(=O)n1 [LAMIVUDINE TRIPHOSPHATE]"
outcome_measure = "log10 of Ki"
experimental_result = 2.27

[[record]]
compound = "Cc1cn([C@H]2C[C@H](O)[C@@H](COP(=O)(O)OP(=O)(O)OP(=O)(O)O)O2)c(=O)[nH]c1=O [DEOXYTHYMIDINE_TRIPHOSPHATE]"
outcome_measure = "log10 of Ki"
experimental_result = 1.79

[[record]]
compound = "Nc1ncnc2c1ncn2[C@H]1CC[C@@H](COP(=O)(O)OP(=O)(O)OP(=O)(O)O)O1 [DDA-TRIPHOSPHATE]"
outcome_measure = "log10 of Ki"
experimental_result = 1.30

[[record]]
compound = "BP(=O)(OC[C@@H]1C=C[C@H](n2cc(C)c(=O)[nH]c2=O)O1)OP(=O)(O)C(F)(F)P(=O)(O)O (some centres not stated)"
outcome_measure = "log10 of Ki"
experimental_result = 1.65

[[record]]
compound = "BP(=O)(OC[C@@H]1CC[C@H](n2cnc3c(N)ncnc32)O1)OP(=O)(O)C(F)(F)P(=O)(O)O (some centres not stated)"
outcome_measure = "log10 of Ki"
experimental_result = 1.67

[[record]]
compound = "BP(=O)(OC[C@H]1O[C@@H](n2cc(F)c(N)nc2=O)CS1)OP(=O)(O)C(F)(F)P(=O)(O)O (some centres not stated)"
outcome_measure = "log10 of Ki"
experimental_result = 3.25


###

molecular target: Human immunodeficiency virus type 1 reverse transcriptase (Human immunodeficiency virus 1, UniProt Q72547)
Catalogue of molecules with associated Ki
outcome measure: Ki (nM)

[[record]]
molecule = "BP(=O)(OC[C@@H]1CC[C@H](n2cnc3c(O)nc(N)cc32)O1)OP(=O)(O)C(F)(F)P(=O)(O)O (single isomer, unassigned; diastereomer I)"
uom = "nM"
experimental_result = 71

[[record]]
molecule = "Cc1cn([C@H]2C=C[C@@H](COP(=O)(O)OP(=O)(O)OP(=O)(O)O)O2)c(=O)[nH]c1=O [STAVUDINE TRIPHOSPHATE]"
uom = "nM"
experimental_result = 56

[[record]]
molecule = "BP(=O)(OC[C@@H]1C=C[C@H](n2cnc3c(O)nc(N)nc32)C1)OP(=O)(O)C(F)(F)P(=O)(O)O (some centres not stated)"
uom = "nM"
experimental_result = 34

[[record]]
molecule = "BP(=O)(OC[C@@H]1CC[C@H](n2ccc(N)nc2=O)O1)OP(=O)(O)C(F)(F)P(=O)(O)O (some centres not stated)"
uom = "nM"
experimental_result = 23

[[record]]
molecule = "Cc1cn([C@H]2C[C@H](N=[N+]=[N-])[C@@H](CO[P@](=O)(O)O[P@](=O)(O)OP(=O)(O)O)O2)c(=O)[nH]c1=O [ZIDOVUDINE TRIPHOSPHATE]"
uom = "nM"
experimental_result = 91

[[record]]
molecule = "BP(=O)(OC[C@H]1O[C@@H](n2cc(C)c(=O)[nH]c2=O)C[C@@H]1N=[N+]=[N-])OP(=O)(O)C(F)(F)P(=O)(O)O (some centres not stated)"
uom = "nM"
experimental_result = 94

[[record]]
molecule = "BP(=O)(OC[C@@H]1CC[C@H](n2ccc(=O)[nH]c2=O)O1)OP(=O)(O)C(F)(F)P(=O)(O)O (some centres not stated)"
uom = "nM"
experimental_result = 438

